system: HEp-2; assay: Cytotoxicity against Homo sapiens (human) Hep2 cells after 24 hr by MTT assay; type: functional, cell-based; settings: HEp-2, 24 h
attribute_measured: IC50

Please review the following examples before continuing.
O=C1C2C3C=CC(CC3)C2C(=O)N1c1ncc(Cl)cc1Cl (stereo not drawn) : > 200 µM
O=C1C2C3C=CC(CC3)C2C(=O)N1c1ccc(Cl)cn1 (stereo not drawn) : > 200 µM

## Task Name the recorded IC50 of "N#Cc1ccccc1N1C(=O)c2ccccc2C1=O" , assay system HEp-2.
## Result > 200 µM

* * *

molecular target: Nitric oxide synthase, inducible (Mus musculus); assay: Inhibition of iNOS in Mus musculus (mouse) RAW 264.7 cells assessed as inhibition of LPS-induced nitrite production pretreated for 24 hr before stimulation with LPS measured after 18 hr by […]; set-up: concentration or dose not given beside the values; conditions: concentration not given here
Give measured inhibition for each item. Keep answers brief.
One number for each entry, in %.

O=C1c2ccccc2C(=O)N1c1ccccn1 : 67.6
Nc1ccccc1CN1C(=O)C2C3C=CC(CC3)C2C1=O (configuration not stated) : 75.5
COc1ccc(N2C(=O)C3C4C=CC(CC4)C3C2=O)cc1 (configuration not stated) : 84.6
N#Cc1ccc(N2C(=O)[C@@H]3C4C=CC(CC4)[C@@H]3C2=O)cc1 : 68.4
Cc1ccc2c(c1)C(=O)N(c1ccc([N+](=O)[O-])cn1)C2=O : 74.8
O=C1c2cccc3cccc(c23)C(=O)N1c1ccccc1 : 67.6

// next entry
## Task # return recorded inhibition for input Nc1ccccc1N1C(=O)C2C3C=CC(CC3)C2C1=O (configuration not stated)
## Result 76.9

* * *

tested on: HL-60; experiment: Cytotoxicity against Homo sapiens (human) HL60 cells after 24 hr by MTT assay; format: functional, cell-based; details: HL-60, 24 h
attribute_measured: IC50

// below: answered molecules
Nc1ccccc1CN1C(=O)C2C3C=CC(CC3)C2C1=O (stereo not drawn) : > 200 µM
COc1ccc(N2C(=O)C3C4C=CC(CC4)C3C2=O)cc1 (stereo not drawn) : > 200 µM
O=C1C2C3C=CC(CC3)C2C(=O)N1c1ccc(Br)cn1 (stereo not drawn) : > 200 µM

For every record below, what is its IC50?
1. O=C1c2ccccc2C(=O)N1c1ccccc1N1C(=O)c2ccccc2C1=O
2. O=C1C2C3C=CC(CC3)C2C(=O)N1c1ccc(Cl)cn1 (stereo not drawn)
3. Nc1ccc(N2C(=O)c3cccc4cccc(c34)C2=O)cc1
4. O=C1c2ccccc2C(=O)N1c1ccccn1
5. Cc1ccc2c(c1)C(=O)N(c1ccc([N+](=O)[O-])cn1)C2=O
6. O=C1c2ccccc2C(=O)N1c1ccc(Cl)cc1
7. N#Cc1ccccc1N1C(=O)c2ccccc2C1=O

## Result
1: > 200 µM; 2: > 200 µM; 3: > 200 µM; 4: > 200 µM; 5: > 200 µM; 6: > 200 µM; 7: > 200 µM

Please supply IC50 for each of the following items, keeping them in order.
1. Nc1cccc(N2C(=O)c3cccc4cccc(c34)C2=O)c1
2. O=C1c2ccccc2C(=O)N1c1ccc(S)cc1
3. Cc1ccc2c(c1)C(=O)N(Cc1ccccc1N)C2=O
4. COc1ccc(N2C(=O)c3ccccc3C2=O)cc1
5. Nc1ccc(CN2C(=O)c3ccccc3C2=O)cc1
6. O=C1c2cccc3cccc(c23)C(=O)N1c1ccccc1
7. O=C1c2ccccc2C(=O)N1c1ccccc1 [N-PHENYL-PHTHALIMIDE]

## Result
> 200 µM
> 200 µM
> 200 µM
> 200 µM
> 200 µM
> 200 µM
> 200 µM

## Task Consider the molecule "Cc1cccc2c1C(=O)N(Cc1ccc(N)cc1)C2=O" . State its measured IC50.
## Result > 200 µM
